Source: patent EP1660440B1

# Experiment Description: in vitro
# Measurement Conditions: human, Caco-2
Reported Papp B→A at 200 µM values for a set of molecules
Report only the number, with the unit ×10⁻⁶ cm/s understood.

A selection of reference data follows.
So what's the measured Papp B→A at 200 µM for this one? CC(C)C(=O)OCOC(=O)NC[C@H](CC(=O)O)c1ccc(Cl)cc1 [(18)]
5.6

Another molecule: CCCC(=O)OCOC(=O)NC[C@H](CC(=O)O)c1ccc(Cl)cc1 [(16)]
1.2

Next:
Endpoint output: Papp B→A at 200 µM of CC(=O)OC(C)OC(=O)NC[C@H](CC(=O)O)c1ccc(Cl)cc1 (stereo partly drawn) [(30)] . Value?
2.3
